# Tested on: 349418-098-R-PDC complex spheroid viability;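 further: spheroids exposed to compound for seven days before viability readout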
# assay_explanation: Anticancer human tumor 349418-098-R-PDC patient-derived lung adenocarcinoma cell line growth inhibition [RAS]
# experimental_conditions: second compound 0.000949 µM; first compound 0.1 µM; hits give low values
outcome_measure: viability, T/C

Notebook: C=CC(=O)N1CCN(c2nc(OCC3CCCN3C)nc3c(F)c(-c4nc(N)cc(C)c4C(F)(F)F)c(Cl)cc23)C(C)C1 (stereo not drawn) + CCn1c(-c2cccnc2C(C)OC)c2c3cc(ccc31)N1CCOC(CC(NC(=O)C(C(C)C)N(C)C(=O)C3(F)CCN(C(=O)C#CC(C)(C)N(C)C)CC3)C(=O)N3CCCC(N3)C(=O)OCC(C)(C)C2)C1 , viability, T/C read as 106%

Notebook: CC(C)n1nc(-c2ccc3oc(N)nc3c2)c2c(N)ncnc21 + CCn1c(-c2cccnc2C(C)OC)c2c3cc(ccc31)N1CCOC(CC(NC(=O)C(C(C)C)N(C)C(=O)C3(F)CCN(C(=O)C#CC(C)(C)N(C)C)CC3)C(=O)N3CCCC(N3)C(=O)OCC(C)(C)C2)C1 , viability, T/C read as 5.48%

Notebook: CC(=O)OC12COC1CC(O)C1(C)C(=O)C(O)C3=C(C)C(OC(=O)C(O)C(NC(=O)OC(C)(C)C)c4ccccc4)CC(O)(C(OC(=O)c4ccccc4)C21)C3(C)C (stereo not drawn) + CCn1c(-c2cccnc2C(C)OC)c2c3cc(ccc31)N1CCOC(CC(NC(=O)C(C(C)C)N(C)C(=O)C3(F)CCN(C(=O)C#CC(C)(C)N(C)C)CC3)C(=O)N3CCCC(N3)C(=O)OCC(C)(C)C2)C1 , viability, T/C read as 13%
